RUN_DESCRIPTION: Apparent permeability across basolateral to apical side in human Caco-2 cells at 10 uM incubated for 90 mins at pH 7.4 by LC/MS analysis
Assay type: ADME, cell-based
TEST_PARAMETERS: Caco-2, pH 7.4
Below: a set of entries, each annotated with reported Papp B→A at 1.5 h, 10 µM.
Give the figure together with its unit, number first.

COMPOUND	ENDPOINT_VALUE
CC(C)N(CCCNC(=O)Nc1ccc(C(C)(C)C)cc1)C[C@H]1O[C@@H](n2ccc3c(N)ncnc32)[C@H](O)[C@@H]1O	5.4 ×10⁻⁶ cm/s
C[C@H]1O[C@@H](O[C@H]2[C@@H](O)C[C@H](O[C@H]3[C@@H](O)C[C@H](O[C@H]4CC[C@@]5(C)[C@H](CC[C@@H]6[C@@H]5C[C@@H](O)[C@]5(C)[C@@H](C7=CC(=O)OC7)CC[C@]65O)C4)O[C@@H]3C)O[C@@H]2C)C[C@H](O)[C@@H]1O	13.2 ×10⁻⁶ cm/s
COCCc1ccc(OCC(O)CNC(C)C)cc1 (centres undefined)	31.1 ×10⁻⁶ cm/s

Then this compound:
Exam item: Which Papp B→A at 1.5 h, 10 µM value is on record for `CC(C)N(CCCNC(=O)Nc1ccc(C(C)(C)C)cc1)C[C@H]1O[C@@H](n2cc(Br)c3c(N)ncnc32)[C@H](O)[C@@H]1O` ?
Marked response: 10.6 ×10⁻⁶ cm/s
